Assay Explanation: in vivo
Details: male, cynomolgus monkey, plasma, iv, 0.5 mg/kg
Measurement Type: clearance at 24 h (mL/min/kg)
Answers are plain numbers, in mL/min/kg.

Could you please provide reported clearance at 24 h for "Cc1ccc(O)c(C)c1-n1c(N)c(C(N)=O)c2cc(Cl)cnc21" ? Thanks!
19.4

---

Assay Explanation: CD-1 mouse pharmacokinetic study
Details: female, in vivo, iv, 1 mg/kg
Provide the recorded clearance at 24 h for the entries that follow.
Answers are plain numbers, in mL/min/kg.

compound="Cc1ccc(O)c(C)c1-n1c(N)c(C(N)=O)c2cc(Cl)cnc21 [Compound 55]" experimental_value=59.2

Consider now this further compound.
Could you please provide reported clearance at 24 h for Cc1cc2c(C(N)=O)c(N)n(-c3c(C)ccc(O)c3C)c2nc1C [RP-6306] ? Thanks!
30.4

---

Assay Explanation: in vivo
Details: male, Sprague-Dawley, rat, iv, 1 mg/kg
Measurement Type: clearance at 24 h (mL/min/kg)
Answers are plain numbers, in mL/min/kg.

Could you please provide reported clearance at 24 h for "Cc1ccc(O)c(C)c1-n1c(N)c(C(N)=O)c2cc(Cl)cnc21" ? Thanks!
25.6

---

Provide the recorded clearance at 24 h for the entries that follow.
Assay Explanation: in vivo
Details: male, beagle, dog, plasma, iv, 0.5 mg/kg
Numbers only, in mL/min/kg.

molecule_smiles=Cc1cc2c(C(N)=O)c(N)n(-c3c(C)ccc(O)c3C)c2nc1C output_unit=mL/min/kg experimental_value=13.1

Consider now this further compound.
Could you please provide reported clearance at 24 h for "Cc1ccc(O)c(C)c1-n1c(N)c(C(N)=O)c2cc(Cl)cnc21" ? Thanks!
21.3
